# Species on record: Homo sapiens
# protocol_notes: Selectivity for MMP13 over MMP2

input_smiles	Selectivity ratio
CCOCCC1(Oc2ccc(Oc3ccc(C(=O)NCc4ccccn4)cc3)cc2)C(=O)NC(=O)NC1=O	17
CCOCCC1(Oc2ccc(Oc3ccc(-c4nc(-c5ccccc5F)no4)cc3)cc2)C(=O)NC(=O)NC1=O	102
CCOCCC1(Oc2ccc(Oc3ccc(-c4nc(-c5ccccc5C#N)co4)cc3)cc2)C(=O)NC(=O)NC1=O	142
CCOCCC1(Oc2ccc(Oc3ccc(C(=O)NCc4cccnc4)cc3)cc2)C(=O)NC(=O)NC1=O	26

====

# protocol_notes: Half life in rat
# Format: ADME, organism-based
# run_parameters: in vivo

input_smiles	readout_units	half-life
COCCC1(Oc2ccc(Oc3ccc(-c4nc(-c5ccc(C#N)cc5)co4)cc3)cc2)C(=O)NC(=O)NC1=O	h	6.9
